The measured values listed here are drawn from patent US20100075926A1.

HDAC1 slope overview
study target: recombinant human HDAC1 (Homo sapiens, UniProt Q13547)
Construct: purchased BPS Biosciences
Sequence (Q13547 whole entry): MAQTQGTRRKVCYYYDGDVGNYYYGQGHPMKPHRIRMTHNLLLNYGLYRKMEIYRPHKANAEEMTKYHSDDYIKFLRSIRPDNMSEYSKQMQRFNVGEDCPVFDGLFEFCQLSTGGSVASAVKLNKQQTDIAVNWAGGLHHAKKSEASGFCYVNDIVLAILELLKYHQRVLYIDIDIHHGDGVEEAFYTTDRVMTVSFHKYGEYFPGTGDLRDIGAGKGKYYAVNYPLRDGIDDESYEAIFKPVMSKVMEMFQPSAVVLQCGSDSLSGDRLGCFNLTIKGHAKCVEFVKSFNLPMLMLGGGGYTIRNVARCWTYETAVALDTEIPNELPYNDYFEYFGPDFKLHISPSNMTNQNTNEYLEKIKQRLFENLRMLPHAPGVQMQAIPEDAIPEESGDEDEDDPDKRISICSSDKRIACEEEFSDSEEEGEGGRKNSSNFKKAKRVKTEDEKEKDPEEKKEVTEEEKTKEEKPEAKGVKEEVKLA
assay notes: 384-well fluorometric deacetylase assay (substrate MAZ1600), HDAC1
Format: biochemical
experimental context: rate of reaction (slope); DMSO control 37787
observed property: HDAC1 slope

Oc1cc2c(c(Cl)c1O)CCNC[C@@H]2c1ccccc1 [R(+)-SKF- 81297]: 40201
CP(=O)(O)CCCN [SK&F 97541]: 40213
N[C@H](CC(=O)O)C(=O)O [D- ASPARTIC ACID, D-aspartic acid]: 40655
COc1cc([C@@H]2c3cc4c(cc3[C@H](O)[C@H]3COC(=O)[C@H]23)OCO4)cc(OC)c1OC [Podophyllo toxin, podophyllotoxin]: 40983

* * *

study target: recombinant human HDAC1 (Homo sapiens)
Construct: purchased BPS Biosciences
assay notes: 384-well fluorometric deacetylase assay (substrate MAZ1600), HDAC1
Assay type: biochemical
experimental context: class assigned from the HDAC1, 2, 3, 5 panel
observed property: Classification

C[C@](N)(Cc1ccc(O)c(O)c1)C(=O)O [Methyldopa (L,-)]: HDAC1 & HDAC3 activator
C[C@H](N)[C@H](O)c1ccc(O)c(O)c1 [Levonordefrin]: HDAC1 & HDAC3 activator
NCC(CC(=O)O)c1ccc(Cl)s1 (racemic): HDAC1 activator
CP(=O)(O)CCCN [SK&F 97541]: HDAC1 activator
O=C(O)[C@@H]1C[C@H]2C[C@@H](CP(=O)(O)O)CC[C@H]2CN1 [LY 235959]: HDAC1 & HDAC3 activator
Oc1cc2c(c(Cl)c1O)CCNC[C@@H]2c1ccccc1 [R(+)-SKF- 81297]: HDAC1 & HDAC3 activator
O=C(O)[C@H]1C[C@@H](CP(=O)(O)O)CCN1 [CGS 19755]: HDAC1 activator
CC1(C)S[C@@H]2[C@H](NC(=O)[C@H](N)c3ccccc3)C(=O)N2[C@H]1C(=O)O [Ampicillin trihydrate]: HDAC1 & HDAC3 activator
COc1cc([C@@H]2c3cc4c(cc3[C@H](O)[C@H]3COC(=O)[C@H]23)OCO4)cc(OC)c1OC [Podophyllo toxin, podophyllotoxin]: HDAC1 activator
NC(C(=O)O)c1nnn[nH]1 (racemic): HDAC1 activator
CCN(CC)CCc1nc(-c2ccccc2)no1.O=C(O)CC(O)(CC(=O)O)C(=O)O [Oxalamine citrate salt]: HDAC1 & HDAC3 activator
CC(O)(P(=O)([O-])O)P(=O)([O-])O.[Na+].[Na+] [Etidronic acid, disodium salt]: HDAC1 & HDAC3 activator
N[C@H](CC(=O)O)C(=O)O [D- ASPARTIC ACID, D-aspartic acid]: HDAC1 activator

* * *

Below, each of the compounds is paired with its reported HDAC10 % activation of deacetylase activity value.
study target: recombinant human HDAC10 (Homo sapiens, UniProt Q969S8)
Sequence (Q969S8 1-669): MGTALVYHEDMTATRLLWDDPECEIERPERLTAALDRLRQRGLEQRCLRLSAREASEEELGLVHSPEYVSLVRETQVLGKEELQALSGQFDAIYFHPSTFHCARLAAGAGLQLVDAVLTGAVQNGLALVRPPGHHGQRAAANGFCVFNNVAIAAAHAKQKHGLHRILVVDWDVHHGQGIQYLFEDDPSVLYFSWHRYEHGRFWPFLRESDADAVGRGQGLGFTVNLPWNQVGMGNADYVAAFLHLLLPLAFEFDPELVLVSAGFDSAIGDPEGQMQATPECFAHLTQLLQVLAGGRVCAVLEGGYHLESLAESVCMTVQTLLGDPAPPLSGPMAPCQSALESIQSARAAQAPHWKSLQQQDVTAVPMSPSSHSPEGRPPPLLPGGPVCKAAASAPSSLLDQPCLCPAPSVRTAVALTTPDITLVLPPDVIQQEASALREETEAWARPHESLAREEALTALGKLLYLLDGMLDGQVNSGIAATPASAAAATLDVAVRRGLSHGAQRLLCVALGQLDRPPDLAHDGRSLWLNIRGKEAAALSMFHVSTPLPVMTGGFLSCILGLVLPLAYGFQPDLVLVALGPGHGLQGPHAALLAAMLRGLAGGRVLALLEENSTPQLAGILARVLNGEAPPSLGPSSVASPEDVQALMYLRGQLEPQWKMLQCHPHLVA
assay notes: Caliper mobility shift deacetylase assay, HDAC10
Assay type: biochemical
experimental context: at the indicated concentration (8-40 μM); avg. n = 2; relative to DMSO
observed property: HDAC10 % activation of deacetylase activity

O=c1c(O)cc([C@H]2Oc3cc(O)cc(O)c3C[C@H]2O)cc2c([C@H]3Oc4cc(O)cc(O)c4C[C@H]3O)cc(O)c(O)c12 [theaflavin]: 0%
CC(=O)N(O)CCCCCNC(=O)CCC(=O)N(O)CCCCCNC(=O)CCC(=O)N(O)CCCCCN [deferoxamine]: 2%
CC(C)=CCC[C@]1(C)C=Cc2c(O)c3c(c(CC=C(C)C)c2O1)O[C@]12C(=C[C@@H]4C[C@H]1C(C)(C)O[C@@]2(C/C=C(/C)C(=O)O)C4=O)C3=O [gambogic acid]: 13%
COc1ccc(-c2cc(=O)c3c(O)cc(O)c(-c4cc(-c5cc(=O)c6c(O)cc(OC)cc6o5)ccc4OC)c3o2)cc1 [sciadopitysin]: 19%
COC(=O)[C@H]1[C@H]2C[C@H]3c4[nH]c5ccccc5c4CCN3C[C@H]2CC[C@@H]1O [alpha-yohimbine]: 1%
CC1=NN(c2ccc(Br)cc2Br)C(=O)/C1=C(/C)NCc1ccccc1 [TAM-12]: −3%

* * *

study target: recombinant human HDAC3 (Homo sapiens)
Construct: purchased BPS Biosciences
Sequence (O15379 whole entry): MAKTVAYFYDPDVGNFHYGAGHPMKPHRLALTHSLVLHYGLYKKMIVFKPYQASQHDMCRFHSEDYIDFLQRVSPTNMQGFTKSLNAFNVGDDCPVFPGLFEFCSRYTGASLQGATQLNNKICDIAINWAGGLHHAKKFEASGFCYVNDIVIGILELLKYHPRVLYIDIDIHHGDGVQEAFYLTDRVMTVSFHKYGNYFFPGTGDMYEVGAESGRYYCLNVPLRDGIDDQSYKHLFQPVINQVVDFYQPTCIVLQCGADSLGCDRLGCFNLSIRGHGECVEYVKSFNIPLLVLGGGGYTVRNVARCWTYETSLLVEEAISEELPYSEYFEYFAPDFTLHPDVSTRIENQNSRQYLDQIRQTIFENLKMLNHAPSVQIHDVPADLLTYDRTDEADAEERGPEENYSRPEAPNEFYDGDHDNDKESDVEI
Sequence (Q9Y618 395-489 partner limits assumed): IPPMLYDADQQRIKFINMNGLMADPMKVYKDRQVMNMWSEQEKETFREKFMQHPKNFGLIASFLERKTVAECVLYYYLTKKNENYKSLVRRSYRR
assay notes: 384-well fluorometric deacetylase assay (substrate MAZ1600), HDAC3
Type: biochemical
experimental context: rate of reaction (slope); DMSO control 54625
Below: a set of entries, each annotated with reported HDAC3 slope.
observed property: HDAC3 slope

N[C@H](CC(=O)O)C(=O)O: 54899
C[C@H](N)[C@H](O)c1ccc(O)c(O)c1: 62457
CCN(CC)CCc1nc(-c2ccccc2)no1.O=C(O)CC(O)(CC(=O)O)C(=O)O [Oxalamine citrate salt]: 60752
O=C(O)[C@@H]1C[C@H]2C[C@@H](CP(=O)(O)O)CC[C@H]2CN1: 65435

* * *

study target: recombinant human HDAC8 (Homo sapiens, UniProt Q9BY41)
Sequence (Q9BY41 1-377): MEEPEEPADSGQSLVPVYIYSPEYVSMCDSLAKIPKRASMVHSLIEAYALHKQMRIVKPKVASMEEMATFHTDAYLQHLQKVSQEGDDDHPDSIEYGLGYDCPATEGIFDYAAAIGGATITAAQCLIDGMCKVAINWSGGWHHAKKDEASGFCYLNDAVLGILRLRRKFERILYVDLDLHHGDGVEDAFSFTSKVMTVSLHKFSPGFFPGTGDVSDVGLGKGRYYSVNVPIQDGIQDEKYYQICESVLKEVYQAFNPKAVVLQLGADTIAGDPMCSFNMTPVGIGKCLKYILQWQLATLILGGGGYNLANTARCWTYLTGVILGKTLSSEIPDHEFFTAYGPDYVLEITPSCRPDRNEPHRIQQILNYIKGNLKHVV
assay notes: Caliper mobility shift deacetylase assay, HDAC8
Type: biochemical
experimental context: at the indicated concentration (8-40 μM); avg. n = 2; relative to DMSO
observed property: HDAC8 % activation of deacetylase activity (%)

CC(C)=CCC[C@]1(C)C=Cc2c(O)c3c(c(CC=C(C)C)c2O1)O[C@]12C(=C[C@@H]4C[C@H]1C(C)(C)O[C@@]2(C/C=C(/C)C(=O)O)C4=O)C3=O [gambogic acid]: −8
CC(=O)N(O)CCCCCNC(=O)CCC(=O)N(O)CCCCCNC(=O)CCC(=O)N(O)CCCCCN [deferoxamine]: 4
COc1ccc(-c2cc(=O)c3c(O)cc(O)c(-c4cc(-c5cc(=O)c6c(O)cc(OC)cc6o5)ccc4OC)c3o2)cc1 [sciadopitysin]: 0
O=c1c(O)cc([C@H]2Oc3cc(O)cc(O)c3C[C@H]2O)cc2c([C@H]3Oc4cc(O)cc(O)c4C[C@H]3O)cc(O)c(O)c12 [theaflavin]: −10
CC1=NN(c2ccc(Br)cc2Br)C(=O)/C1=C(/C)NCc1ccccc1 [TAM-12]: 2
COC(=O)[C@H]1[C@H]2C[C@H]3c4[nH]c5ccccc5c4CCN3C[C@H]2CC[C@@H]1O [alpha-yohimbine]: 0

* * *

Recorded HDAC2 % activation of deacetylase activity, one value per entry.
study target: recombinant human HDAC2 (Homo sapiens, UniProt Q92769)
Construct: purchased BPS Biosciences
Sequence (Q92769 whole entry): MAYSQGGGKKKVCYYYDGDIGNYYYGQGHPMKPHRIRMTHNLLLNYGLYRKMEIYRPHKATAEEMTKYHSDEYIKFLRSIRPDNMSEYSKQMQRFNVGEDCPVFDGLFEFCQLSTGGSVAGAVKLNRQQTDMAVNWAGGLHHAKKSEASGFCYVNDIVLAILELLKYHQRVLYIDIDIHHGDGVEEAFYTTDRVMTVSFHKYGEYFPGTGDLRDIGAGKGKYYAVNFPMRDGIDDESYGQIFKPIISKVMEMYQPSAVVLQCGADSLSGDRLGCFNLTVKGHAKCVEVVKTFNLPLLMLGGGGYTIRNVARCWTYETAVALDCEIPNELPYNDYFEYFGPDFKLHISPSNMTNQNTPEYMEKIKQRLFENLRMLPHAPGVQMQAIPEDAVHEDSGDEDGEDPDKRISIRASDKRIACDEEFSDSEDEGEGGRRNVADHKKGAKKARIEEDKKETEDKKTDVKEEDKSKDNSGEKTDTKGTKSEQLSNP
assay notes: Caliper mobility shift deacetylase assay, HDAC2
Assay type: biochemical
experimental context: at the indicated concentration (8-40 μM); avg. n = 2; relative to DMSO
observed property: HDAC2 % activation of deacetylase activity (%)

COC(=O)[C@H]1[C@H]2C[C@H]3c4[nH]c5ccccc5c4CCN3C[C@H]2CC[C@@H]1O: −5
CC1=NN(c2ccc(Br)cc2Br)C(=O)/C1=C(/C)NCc1ccccc1: −1
CC(C)=CCC[C@]1(C)C=Cc2c(O)c3c(c(CC=C(C)C)c2O1)O[C@]12C(=C[C@@H]4C[C@H]1C(C)(C)O[C@@]2(C/C=C(/C)C(=O)O)C4=O)C3=O: −5
O=c1c(O)cc([C@H]2Oc3cc(O)cc(O)c3C[C@H]2O)cc2c([C@H]3Oc4cc(O)cc(O)c4C[C@H]3O)cc(O)c(O)c12: −8
CC(=O)N(O)CCCCCNC(=O)CCC(=O)N(O)CCCCCNC(=O)CCC(=O)N(O)CCCCCN: −3
COc1ccc(-c2cc(=O)c3c(O)cc(O)c(-c4cc(-c5cc(=O)c6c(O)cc(OC)cc6o5)ccc4OC)c3o2)cc1: −4
